tested on: LOX IMVI melanoma; test: NCI-60 one-dose screen, 48 h (100 = growth as untreated, 0 = no growth, -100 = all killed); conditions: 10 µM unless noted
Compounds without any hit were thinned out: in the full panel of roughly 83,000, 20% have a hit.
Rule: growth of 70% or more gives TRUE; anything lower gives FALSE.

Look over these answered cases.
compound | target | assigned.category
O=C(/C=C/c1ccccc1)c1cccc(OCCCOc2cccc(C(=O)/C=C/c3ccccc3)c2)c1 | LOX IMVI melanoma | FALSE
CCOC(=O)c1cc(-c2ccc([N+](=O)[O-])cc2)n(-c2ccc(C(=O)O)c(O)c2)c1C | LOX IMVI melanoma | FALSE
COc1cc(CNC(=O)/C=C/C=C/c2ccc3c(c2)OCO3)ccc1OCc1cn(-c2ccc(C)c(C)c2)nn1 | LOX IMVI melanoma | TRUE
COc1cc2oc(-c3cccc(NC(=O)c4cccc(Br)c4)c3)cc(=O)c2c(OC)c1OC | LOX IMVI melanoma | FALSE
COc1cc(CNS(=O)(=O)c2ccc(C)cc2)ccc1OCc1cn(-c2ccc(F)cc2)nn1 | LOX IMVI melanoma | TRUE
COc1cc2c(c(OC)c1OC)-c1ccc(OC)c(=O)cc1[C@@H](NC(=O)CCl)CC2 | LOX IMVI melanoma | FALSE
COc1cccc(CNc2ncnc3c2ncn3C2OC(CO)C(O)C2O)c1O (centres undefined) | LOX IMVI melanoma | FALSE

Problem: Form field: growth at least 70%? Entry: O=C1/C(=C/c2cccs2)SC(=S)N1CCCN1CCOCC1
Result: TRUE
